These measurements were taken from ChEMBL document CHEMBL1201862.

test system: T47D; assay: NCI tumour cell line growth inhibition, 48 h
Calls of active or inactive are those of the source. Rule as the data show it: active = GI50 up to about 1.1 µM and inactive = higher.
The following compounds are shown together with reported GI50 values.
assay-metric: GI50

compound: COc1ccc(C(=O)/C=C/c2ccc(OCCSCCCCCCCCCCSCCOc3ccc(/C=C/C(=O)c4ccc(OC)cc4)cc3)cc2)cc1
target-of-assay: T47D
reported-measurement: > 100 µM (inactive)
--
compound: Nc1ccc(Oc2ccc(C34CC5CC6C3CC3CC4C(C5)C6(c4ccc(Oc5ccc(N)c(O)c5)cc4)C3)cc2)cc1O
target-of-assay: T47D
reported-measurement: 0.652 µM (active)
--
compound: CC1=CCS(=O)(=O)C1C(O)C1=C(C)CCCC1(C)C (stereo not given)
target-of-assay: T47D
reported-measurement: 45.7 µM (inactive)
--
compound: CN(/N=C/c1ccc(Cl)c(Cl)c1)C1=NCCN1
target-of-assay: T47D
reported-measurement: 23 µM (inactive)
--
compound: CCN1CCC(O)(c2ccc(O)cc2)C(C(=O)c2ccc(O)cc2)C1 (stereo not given)
target-of-assay: T47D
reported-measurement: 8.77 µM (inactive)
--
compound: N#CC1(C#N)C(c2ccccc2)NC23CCCCC2C1(C#N)C(=O)N3 (stereo not given)
target-of-assay: T47D
reported-measurement: > 100 µM (inactive)
--
compound: CC1=CC(=O)c2cccc(O)c2C1=O
target-of-assay: T47D
reported-measurement: 1.77 µM (inactive)
--
compound: C[Si](C)(N[Si](C)(C)OCCc1ccccc1)OCCc1ccccc1
target-of-assay: T47D
reported-measurement: > 100 µM (inactive)
--
compound: Cc1ccc(C(=O)Nc2ccc(CP(=O)(O)O)cc2CP(=O)(O)O)cc1NC(=O)c1cccc(NC(=O)Nc2cccc(C(=O)Nc3cc(C(=O)Nc4ccc(CP(=O)(O)O)cc4CP(=O)(O)O)ccc3C)c2)c1
target-of-assay: T47D
reported-measurement: > 100 µM (inactive)
--
compound: CC(C)N1[C@@H]2CCCC[C@H]2N(C(C)C)[PH]1=O
target-of-assay: T47D
reported-measurement: > 100 µM (inactive)
--
compound: CN(N=O)c1nc2c(C(N)=O)ncn2s1
target-of-assay: T47D
reported-measurement: > 100 µM (inactive)
--
compound: O=[N+]([O-])c1ccc(Cl)cc1C1ON=C(c2ccccc2)N1C12CC3CC(CC(C3)C1)C2 (stereo not given)
target-of-assay: T47D
reported-measurement: > 100 µM (inactive)
--
compound: COc1ccc(C(=O)/C=C/c2ccc(OCC(=N)N)cc2)cc1
target-of-assay: T47D
reported-measurement: 10.7 µM (inactive)
--
compound: O=[N+]([O-])C(C(Cl)=C(Cl)Cl)=C(N(Cc1ccccc1)Cc1ccccc1)N(Cc1ccccc1)Cc1ccccc1
target-of-assay: T47D
reported-measurement: > 100 µM (inactive)
--
compound: CN1C[C@@H]2CCCN2P1Oc1cccc2cccnc12 (stereo not given in full)
target-of-assay: T47D
reported-measurement: 9.77 µM (inactive)
--
compound: CC1Cn2c(nc3ccccc32)NC1=O (stereo not given)
target-of-assay: T47D
reported-measurement: > 100 µM (inactive)
--
compound: CC(C)(C)OC(=O)N1CCC2(C)CC(=O)CC=C12 (stereo not given)
target-of-assay: T47D
reported-measurement: > 100 µM (inactive)
--
compound: Oc1c(CN2CCN(c3ccccc3)CC2)cc(Br)c2cccnc12
target-of-assay: T47D
reported-measurement: 1.32 µM (inactive)
--
compound: COC(=O)C1(NC(=O)C(CC(=O)OCc2ccccc2)NC(=O)OCc2ccccc2)CCCCCC1 (stereo not given)
target-of-assay: T47D
reported-measurement: 30.8 µM (inactive)
--
compound: CCCCCCc1cc2cc(-c3cn4c(n3)sc3ccccc34)c(=O)oc2cc1O
target-of-assay: T47D
reported-measurement: > 100 µM (inactive)

###

tested on: SK-MEL-28; assay: NCI tumour cell line growth inhibition, 48 h
The source made the active and inactive calls. No stated cut-off is given here; in the data, active = GI50 up to about 1.1 µM and inactive = higher.
assay-metric: GI50

compound: Cc1ccc(N/N=C2\C3=C(CCC(C)(C)O3)C(=O)c3ccccc32)cc1
reported-measurement: 21.9 µM (inactive)
--
compound: CN1CN(c2ccccc2)C2(CCN(CCCC3(c4cccs4)OCCO3)CC2)C1=O
reported-measurement: > 100 µM (inactive)
--
compound: O=S(=O)(/C=C/CS(=O)(=O)c1ccccc1)c1ccccc1
reported-measurement: 31.8 µM (inactive)
--
compound: CN(Cc1ccccc1)c1nc(=[N+](C)C)ss1
reported-measurement: > 100 µM (inactive)
--
compound: COCCCN1C(=O)C2c3[nH]c4ccccc4c3C3CCC(C(C)(C)C)CC3C2C1=O (centres undefined)
reported-measurement: 38 µM (inactive)
--
compound: C[C@]12CCC(=O)C=C1C[C@@H](O)[C@@H]1[C@@H]2CC[C@@]2(C)[C@H]1CC[C@]2(C)O
reported-measurement: > 100 µM (inactive)
--
compound: Cc1cc2c(cc1Cl)SSc1cc(Cl)c(C)cc1S(=O)(=O)Nc1nc(N)nn1C(O)n1nc(N)nc1NS2(=O)=O
reported-measurement: > 10 µM (inactive)
--
compound: Cc1nc2sc(C(=O)c3ccc(Cl)cc3)c(N)c2c(-c2ccccc2Cl)c1C(=O)Nc1ccccc1
reported-measurement: 13.1 µM (inactive)
--
compound: COc1ccc(-n2c3c(c4c(CN(C)C)c(O)ccc42)C(=O)c2ccccc2C3=O)cc1
reported-measurement: 3.38 µM (inactive)

###

tested on: HOP-62; test: NCI tumour cell line growth inhibition, 48 h
Calls of active or inactive are those of the source. No stated cut-off is given here; in the data, active = GI50 up to about 1.1 µM and inactive = higher.
Outcomes: true (1) (active), false (0) (inactive)

compound: COc1ccc2cc(C(=O)NCCCNC(=O)c3ccc4cc(OC)ccc4c3)ccc2c1
target-of-assay: HOP-62
qualitative-label: false (0)
//
compound: CCOC(=O)CC[C@H](N)C(=O)N[C@@H](Cc1ccc(N(CCCl)CCCl)cc1)C(=O)OCC
target-of-assay: HOP-62
qualitative-label: false (0)
//
compound: O=C(NN1C(=O)C=CC1=O)c1ccccc1Nc1ccccc1C(=O)NN1C(=O)C=CC1=O
target-of-assay: HOP-62
qualitative-label: false (0)
//
compound: N#CC1C[C@@H]2CC3(CCC2CN1C(=O)c1ccccc1)OCCO3 (some centres undefined)
target-of-assay: HOP-62
qualitative-label: false (0)
//
compound: CN(C)NC(=S)NC12CC3CC(CC(C3)C1)C2
target-of-assay: HOP-62
qualitative-label: false (0)
//
compound: CC(C)(C)Cc1cc(O)ccc1O
target-of-assay: HOP-62
qualitative-label: false (0)
//
compound: COc1cc([C@@H]2c3cc4c(cc3[C@@H](OC3OC5CO[C@@H](c6cccs6)OC5C(O)C3O)[C@H]3COC(=O)[C@H]23)OCO4)cc(OC)c1O (some centres undefined)
target-of-assay: HOP-62
qualitative-label: true (1)
//
compound: CCOC(=O)c1ccc(/N=C\c2ccc(N(CCC#N)CCC#N)cc2)cc1
target-of-assay: HOP-62
qualitative-label: false (0)
//
compound: COC1=CC(=O)OC(/C=C(C)/C=C/C2=C(C)CCCC2(C)C)C1 (centres undefined)
target-of-assay: HOP-62
qualitative-label: false (0)

###

Consider the following compounds and their measured GI50 readings.
test system: HL-60; experiment: NCI tumour cell line growth inhibition, 48 h
Active and inactive are the calls of the source. No stated cut-off is given here; in the data, active = GI50 up to about 1.1 µM and inactive = higher.
assay-metric: GI50

compound: O=C(Cc1cc(=O)oc2cc(O)ccc12)N/N=C/c1ccc(N(CCCl)CCCl)cc1
assay-metric: GI50
reported-measurement: 14.5 µM (inactive)
--
compound: CC(C)=C[C@H]1C[C@H](C)[C@H]2CC[C@H](C)c3c2c1c(C)c1ncoc31
assay-metric: GI50
reported-measurement: 11.5 µM (inactive)
--
compound: Cc1ccc2c(c1)C(=O)C(Cc1ccccc1C(=O)O)C2 (centres undefined)
assay-metric: GI50
reported-measurement: > 100 µM (inactive)
--
compound: CCn1c(SCC(=O)NNC(=S)Nc2ccc([N+](=O)[O-])cc2)nc2ccccc2c1=O
assay-metric: GI50
reported-measurement: 40.7 µM (inactive)
--
compound: COc1ccc(C(=O)C(CC2C(=O)CC(C)(C)C(C(=O)C(=O)Nc3c(C)cccc3C)C2=O)c2ccc(OC)cc2)cc1 (centres undefined)
assay-metric: GI50
reported-measurement: 96.6 µM (inactive)
--
compound: Cc1cc(N(CCC#N)CCC#N)ccc1/C=C1N=C(/C=C\c2ccccc2)N(c2ccc(Cl)cc2)C\1=O
assay-metric: GI50
reported-measurement: 6.05 µM (inactive)
--
compound: CN(C)NC(=S)NC12CC3CC(CC(C3)C1)C2
assay-metric: GI50
reported-measurement: > 100 µM (inactive)
--
compound: COC(=O)[C@@H]1CN(C(=O)c2ccccc2)C(=O)N1C(=O)OCc1ccccc1
assay-metric: GI50
reported-measurement: > 100 µM (inactive)
--
compound: Cc1ccc(C(=O)/C=C/c2ccccc2Cl)cc1
assay-metric: GI50
reported-measurement: 16.4 µM (inactive)
--
compound: C/C(C[n+]1ccccc1)=N\N=C(N)N
assay-metric: GI50
reported-measurement: > 100 µM (inactive)
--
compound: CCCCNC(=S)c1ccc(OC(=O)Nc2ccc(Cl)cc2)cc1
assay-metric: GI50
reported-measurement: 8.57 µM (inactive)
--
compound: O=C(C1=C(C(=O)c2ccccc2)SC2(S1)C(C(=O)c1ccccc1)=C(C(=O)c1ccccc1)Sc1c2ssc1=O)c1ccccc1
assay-metric: GI50
reported-measurement: 11.2 µM (inactive)
--
compound: Nc1c(-c2ccccc2-c2c(N)[n+]([O-])c3ccccc3[n+]2[O-])[n+]([O-])c2ccccc2[n+]1[O-]
assay-metric: GI50
reported-measurement: 3.69 µM (inactive)
--
compound: C=C1C(=O)O[C@@H]2/C=C(/C)[C@@H](OC(C)=O)C/C=C(\C)C(O)[C@@H](OC(=O)/C(C)=C\C)C12 (some centres undefined)
assay-metric: GI50
reported-measurement: 14.8 µM (inactive)
--
compound: O=C1NC(=O)C(c2c[nH]c3cc(Br)ccc23)=C1c1cnc[nH]1
assay-metric: GI50
reported-measurement: 20.4 µM (inactive)
--
compound: CCOC(=O)N1CCC2(CC1)C[C@](C)(C(C)=O)C(C)O2 (some centres undefined)
assay-metric: GI50
reported-measurement: 2.81 µM (inactive)
--
compound: COC(=O)C1CCC(=O)N1CN(C(C)=O)c1cccc(O)c1 (centres undefined)
assay-metric: GI50
reported-measurement: > 100 µM (inactive)
--
compound: NC(Cc1ccccc1)C(=O)OCN1C(=O)C2C3C=CC(C2C1=O)C1C2C(=O)N(COC(=O)C(N)Cc4ccccc4)C(=O)C2C31 (centres undefined)
assay-metric: GI50
reported-measurement: 23.7 µM (inactive)
--
compound: CC(=O)OCC1OC(n2c(=O)n(-c3ccccc3)c(=O)c3ccccc32)C(OC(C)=O)C(OC(C)=O)C1OC(C)=O (centres undefined)
assay-metric: GI50
reported-measurement: > 100 µM (inactive)
